- Tested on: WPMY1-TUBA1B-RELA
- assay-details: phenotypically active (imaging signature differs from DMSO and reproducible) at any of 0.3-9 uM (binary (1 = active, 0 = inactive)); higher = active
- assay-context: treatment time: 24 h
Where a name gives a salt, the structure may show the parent alone.
# Lookup of reported phenotypically active keyed by entry
property-name: phenotypically active

compound=COC(=O)[C@@]1(O)C[C@H]2O[C@]1(C)n1c3ccccc3c3c4c(c5c6ccccc6n2c5c31)C(=O)NC4 observed_result=1
compound="CC[N+](CC)(CCCNC1=CC(=O)C(NCCC[N+](CC)(CC)Cc2ccccc2)=CC1=O)Cc1ccccc1 [Benzoquinonium dibromide]" observed_result=0
compound="CC[C@@H](C)C(=O)O[C@H]1[C@H](O)[C@H]2[C@@H](CN3C[C@@H](C)CC[C@H]3[C@@]2(C)O)C2C[C@]34O[C@]5(O)[C@@H](OC(=O)[C@](C)(O)CC)CC[C@@]3(C)[C@@H]5[C@@H](OC(C)=O)[C@@H](OC(C)=O)[C@H]4[C@@]21O (some centres undefined)" observed_result=0
compound=N#CC(CCN1CCC(C(=O)O)(c2ccccc2)CC1)(c1ccccc1)c1ccccc1 observed_result=0
compound=C=C(C)[C@H]1CN[C@H](C(=O)O)[C@H]1CC(=O)O observed_result=0
compound=CC(C)C[C@H]1C(=O)N2CCC[C@H]2[C@]2(O)O[C@](NC(=O)[C@@H]3C=C4c5cccc6[nH]c(Br)c(c56)C[C@H]4N(C)C3)(C(C)C)C(=O)N12 observed_result=0
compound=COc1cc([C@@H]2c3cc4c(cc3[C@H](O)[C@H]3COC(=O)[C@H]23)OCO4)cc(OC)c1OC observed_result=1
compound=COc1ccc2c(c1)[C@]13CCCC[C@@H]1[C@H](C2)N(C)CC3 observed_result=0
compound="CC[C@H]1CN2CCC1C[C@H]2[C@H](O)c1ccnc2ccc(OC)cc12 (some centres undefined) [Hydroquinine hydrobromide hydrate]" observed_result=0
compound=C[C@@]12C(=O)OC(=O)[C@]1(C)[C@H]1CC[C@@H]2O1 observed_result=1
compound="C=C1[C@@H](O)C2C=CC[C@H](C)C(=O)[C@](C)(O)C=C[C@@H](OC(C)=O)[C@]23C(=O)N[C@H](Cc2ccccc2)[C@@H]3[C@@H]1C (some centres undefined)" observed_result=1
compound="C[C@@H]1O[C@@H](O[C@H]2C[C@@H](O)[C@]3(CO)[C@H]4[C@H](O)C[C@]5(C)[C@@H](C6=CC(=O)OC6)CC[C@]5(O)[C@@H]4CC[C@]3(O)C2)[C@H](O)[C@H](O)[C@H]1O [Strophantine octahydrate]" observed_result=1
compound=COc1cc2c(cc1O)C[C@H]1c3c(cc(O)c(OC)c3-2)CCN1C observed_result=0
compound=Cc1sc2c(c1C)C(c1ccc(Cl)cc1)=N[C@H](CC(=O)OC(C)(C)C)c1nnc(C)n1-2 observed_result=1
compound="Cc1ccc(C[N+](C)(C)C)o1 [5-Methylfurmethiodide]" observed_result=0
compound=C[C@H]1O[C@@H](O[C@H]2[C@@H](O)C[C@H](O[C@H]3[C@@H](O)C[C@H](O[C@H]4CC[C@@]5(C)[C@H](CC[C@@H]6[C@@H]5CC[C@]5(C)[C@@H](C7=CC(=O)OC7)[C@@H](O)C[C@]65O)C4)O[C@@H]3C)O[C@@H]2C)C[C@H](O)[C@@H]1O observed_result=1
compound=O=C1CCC[C@@H]2[C@H]3CCCN4CCC[C@@H](CN12)[C@@H]34 observed_result=0
compound="O=C1CCCN1CC#CCN1CCCC1 [Oxotremorine sesquifumarate]" observed_result=0
compound=CN1C[C@H](CO)C=C2c3cccc4[nH]cc(c34)C[C@H]21 observed_result=0
